# Method: In vivo radioactivity biodistribution experiment in normal mice (Example 1, Table 13)
# Design: species or system ddY mice
# Condition Description: liver, 10 min after injection
Items are presented alongside their recorded Biodistribution of radioactivity, Liver.

Answered examples (4):
• COc1ccc(/C=C2\Oc3ccc([125I])cc3C2=O)cc1 [[^125I]17] = 5.16 (0.73) % injected dose per gram
• O=C1/C(=C/c2ccc(O)cc2)Oc2ccc([125I])cc21 [[^125I]20] = 6.63 (1.08) % injected dose per gram
• Nc1ccc(/C=C2\Oc3ccc([125I])cc3C2=O)cc1 [[^125I]14] = 8.48 (2.84) % injected dose per gram
• CN(C)c1ccc(/C=C2\Oc3ccc([125I])cc3C2=O)cc1 [[^125I]7] = 7.86 (2.25) % injected dose per gram

Switching to the query record.
State the recorded Biodistribution of radioactivity, Liver for this entry: CNc1ccc(/C=C2\Oc3ccc([125I])cc3C2=O)cc1 [[^125I]12]
9.70 (2.78) % injected dose per gram

====

# Method: In vivo radioactivity biodistribution experiment in normal mice (Example 1, Table 13)
# Parameters: species or system ddY mice
# Condition Description: heart, 30 min after injection
Observation Type: Biodistribution of radioactivity, Heart

Answered examples (4):
* O=C1/C(=C/c2ccc(O)cc2)Oc2ccc([125I])cc21 [[^125I]20] | 0.98 (0.14) % injected dose per gram
* CN(C)c1ccc(/C=C2\Oc3ccc([125I])cc3C2=O)cc1 [[^125I]7] | 0.55 (0.29) % injected dose per gram
* COc1ccc(/C=C2\Oc3ccc([125I])cc3C2=O)cc1 [[^125I]17] | 0.37 (0.09) % injected dose per gram
* Nc1ccc(/C=C2\Oc3ccc([125I])cc3C2=O)cc1 [[^125I]14] | 1.30 (0.41) % injected dose per gram

Switching to the query record.
State the recorded Biodistribution of radioactivity, Heart for this entry: CNc1ccc(/C=C2\Oc3ccc([125I])cc3C2=O)cc1 [[^125I]12]
0.98 (0.21) % injected dose per gram

====

Items are presented alongside their recorded Biodistribution of radioactivity, Pancreas.
# Method: In vivo radioactivity biodistribution experiment in normal mice (Example 1, Table 13)
# Parameters: species or system ddY mice
# Condition Description: pancreas, 30 min after injection
# Experimental: ^125I-labeled compounds were diluted with 10% ethanol-containing physiological saline. […] After their blood was collected, organs were removed, and the weights and radioactivities thereof were measured. When any of the aurone derivatives was used, sufficient radioactivity to perform imaging of intracerebral amyloid migrated to the brain from the early stage of injection (1.7-4.6% ID/g). […]

Answered examples (2):
* Nc1ccc(/C=C2\Oc3ccc([125I])cc3C2=O)cc1 [[^125I]14] | 1.22 (0.21) % injected dose per gram
* CNc1ccc(/C=C2\Oc3ccc([125I])cc3C2=O)cc1 [[^125I]12] | 0.83 (0.10) % injected dose per gram

State the recorded Biodistribution of radioactivity, Pancreas for this entry: O=C1/C(=C/c2ccc(O)cc2)Oc2ccc([125I])cc21 [[^125I]20]
0.92 (0.19) % injected dose per gram

Can you handle COc1ccc(/C=C2\Oc3ccc([125I])cc3C2=O)cc1 [[^125I]17] next?
0.29 (0.14) % injected dose per gram

Can you handle CN(C)c1ccc(/C=C2\Oc3ccc([125I])cc3C2=O)cc1 [[^125I]7] next?
0.55 (0.21) % injected dose per gram

====

# Method: In vivo radioactivity biodistribution experiment in normal mice (Example 1, Table 13)
# Parameters: species or system ddY mice
# Condition Description: stomach, 30 min after injection
Items are presented alongside their recorded Biodistribution of radioactivity, Stomach.

* CN(C)c1ccc(/C=C2\Oc3ccc([125I])cc3C2=O)cc1 [[^125I]7] | 1.87 (0.79) % injected dose per organ
* O=C1/C(=C/c2ccc(O)cc2)Oc2ccc([125I])cc21 [[^125I]20] | 2.82 (1.88) % injected dose per organ

Switching to the query record.
State the recorded Biodistribution of radioactivity, Stomach for this entry: COc1ccc(/C=C2\Oc3ccc([125I])cc3C2=O)cc1 [[^125I]17]
0.48 (0.09) % injected dose per organ

====

# Method: In vivo radioactivity biodistribution experiment in normal mice (Example 1, Table 13)
# Parameters: species or system ddY mice
# Condition Description: stomach, 2 min after injection
Items are presented alongside their recorded Biodistribution of radioactivity, Stomach.

Answered examples (2):
* CNc1ccc(/C=C2\Oc3ccc([125I])cc3C2=O)cc1 [[^125I]12] | 1.30 (0.43) % injected dose per organ
* Nc1ccc(/C=C2\Oc3ccc([125I])cc3C2=O)cc1 [[^125I]14] | 1.59 (0.71) % injected dose per organ

Switching to the query record.
State the recorded Biodistribution of radioactivity, Stomach for this entry: COc1ccc(/C=C2\Oc3ccc([125I])cc3C2=O)cc1 [[^125I]17]
0.68 (0.33) % injected dose per organ

====

# Method: In vivo radioactivity biodistribution experiment in normal mice (Example 1, Table 13)
# Design: species or system ddY mice
# Condition Description: spleen, 10 min after injection
Observation Type: Biodistribution of radioactivity, Spleen

State the recorded Biodistribution of radioactivity, Spleen for this entry: O=C1/C(=C/c2ccc(O)cc2)Oc2ccc([125I])cc21 [[^125I]20]
1.36 (0.15) % injected dose per gram

Can you handle CN(C)c1ccc(/C=C2\Oc3ccc([125I])cc3C2=O)cc1 [[^125I]7] next?
0.81 (0.54) % injected dose per gram

Can you handle CNc1ccc(/C=C2\Oc3ccc([125I])cc3C2=O)cc1 [[^125I]12] next?
1.28 (0.19) % injected dose per gram

Reference source: patent US20100003191A1
